Biological target: Link_TSG6 (Homo sapiens, UniProt P98066)
Construct: made in house
Sequence (P98066 36-129 limits assumed): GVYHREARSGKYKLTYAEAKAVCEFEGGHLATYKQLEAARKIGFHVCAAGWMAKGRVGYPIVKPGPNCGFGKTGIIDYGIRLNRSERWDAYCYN
Assay: ITC of HA oligosaccharides binding to Link_TSG6
Details: Table 4; ITC, 25 °C, 5 mM MES pH 6.0; mean ± SEM, four titrations; read-out: KD
Method: ITC experiments were performed using a MicroCal PEAQ-ITC instrument (Malvern Instruments). Oligosaccharide stock solutions were prepared at 0.29 mM (in 5 mM MES, pH 6.0) and injected (18 × 2 μl with 120 s spacing between injections) into the cell containing ∼200 μl Link_TSG6 (0.029 mM) in matched buffer at 25 °C. […] Each oligosaccharide was analyzed in four independently performed ITC experiments.
MEASUREMENT_KIND: pKd
Scale: negative log10 of molar concentration, which is what pKd denotes.

**Query** Item CC(=O)N[C@H]1[C@H](O[C@H]2[C@H](O)[C@@H](O)[C@H](O[C@H]3[C@H](O)[C@@H](CO)O[C@@H](O[C@H]4[C@H](O)[C@@H](O)[C@H](O[C@H]5[C@H](O)[C@@H](CO)O[C@@H](O[C@H]6[C@H](O)[C@@H](O)[C@H](O[C@@H]([C@H](O)[C@H](O)CO)[C@H](CNc7cc[nH]n7)NC(C)=O)O[C@@H]6C(=O)O)[C@@H]5NC(C)=O)O[C@@H]4C(=O)O)[C@@H]3NC(C)=O)O[C@@H]2C(=O)O)O[C@H](CO)[C@@H](O)[C@@H]1O[C@@H]1O[C@H](C(=O)O)[C@@H](O)[C@H](O)[C@H]1O [HA8-3APY] has what recorded pKd?
**Result** 6.57

----------
Some molecules, each annotated with its measured ΔG.
target: Link_TSG6 (Homo sapiens); construct: made in house; assay: ITC of HA oligosaccharides binding to Link_TSG6; conditions: Table 4; ITC, 25 °C, 5 mM MES pH 6.0; mean ± SEM
Unit kcal/mol implied. Number only.

CHEMICAL_STRUCTURE	ΔG (kcal/mol)
CC(=O)N[C@H]1[C@H](O[C@H]2[C@H](O)[C@@H](O)[C@H](O[C@H]3[C@H](O)[C@@H](CO)O[C@@H](O[C@H]4[C@H](O)[C@@H](O)[C@H](O[C@H]5[C@H](O)[C@@H](CO)O[C@@H](O[C@H]6[C@H](O)[C@@H](O)[C@H](O[C@@H]([C@H](O)[C@H](O)CO)[C@H](CNc7cccc8c7CCC8)NC(C)=O)O[C@@H]6C(=O)O)[C@@H]5NC(C)=O)O[C@@H]4C(=O)O)[C@@H]3NC(C)=O)O[C@@H]2C(=O)O)O[C@H](CO)[C@@H](O)[C@@H]1O[C@@H]1O[C@H](C(=O)O)[C@@H](O)[C@H](O)[C@H]1O	-9.15

--- query ---
**Query** Item "CC(=O)N[C@H]1[C@H](O[C@H]2[C@H](O)[C@@H](O)[C@H](O[C@H]3[C@H](O)[C@@H](CO)O[C@@H](O[C@H]4[C@H](O)[C@@H](O)[C@H](O[C@@H]([C@H](O)[C@H](O)CO)[C@H](CNc5cccc6c5CCC6)NC(C)=O)O[C@@H]4C(=O)O)[C@@H]3NC(C)=O)O[C@@H]2C(=O)O)O[C@H](CO)[C@@H](O)[C@@H]1O[C@@H]1O[C@H](C(=O)O)[C@@H](O)[C@H](O)[C@H]1O" has what recorded ΔG?
**Result** -7.98

----------
biological target: recombinant human TSG-6 (Homo sapiens, UniProt P19827+P98066); construct: TSG-6–mediated HC-transfer assays (using full-length TSG6); purchased R&D Systems; assay: In vitro HC-transfer assay (IαI + rhTSG-6, Western blot anti-HC1); assay type: biochemical; conditions: Table 6; 15 μM HA, 1.8 μM IαI, rhTSG-6, 2 h at 37 °C
Sequence (P98066 18-277): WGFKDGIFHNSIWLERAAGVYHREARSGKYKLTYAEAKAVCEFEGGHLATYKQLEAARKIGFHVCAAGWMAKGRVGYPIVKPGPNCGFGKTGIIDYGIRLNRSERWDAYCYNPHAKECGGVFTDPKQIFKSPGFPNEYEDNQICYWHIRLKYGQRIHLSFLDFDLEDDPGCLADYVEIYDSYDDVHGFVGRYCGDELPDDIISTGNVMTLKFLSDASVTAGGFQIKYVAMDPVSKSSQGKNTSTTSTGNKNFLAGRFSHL
Sequence (P19827 35-672 limits assumed): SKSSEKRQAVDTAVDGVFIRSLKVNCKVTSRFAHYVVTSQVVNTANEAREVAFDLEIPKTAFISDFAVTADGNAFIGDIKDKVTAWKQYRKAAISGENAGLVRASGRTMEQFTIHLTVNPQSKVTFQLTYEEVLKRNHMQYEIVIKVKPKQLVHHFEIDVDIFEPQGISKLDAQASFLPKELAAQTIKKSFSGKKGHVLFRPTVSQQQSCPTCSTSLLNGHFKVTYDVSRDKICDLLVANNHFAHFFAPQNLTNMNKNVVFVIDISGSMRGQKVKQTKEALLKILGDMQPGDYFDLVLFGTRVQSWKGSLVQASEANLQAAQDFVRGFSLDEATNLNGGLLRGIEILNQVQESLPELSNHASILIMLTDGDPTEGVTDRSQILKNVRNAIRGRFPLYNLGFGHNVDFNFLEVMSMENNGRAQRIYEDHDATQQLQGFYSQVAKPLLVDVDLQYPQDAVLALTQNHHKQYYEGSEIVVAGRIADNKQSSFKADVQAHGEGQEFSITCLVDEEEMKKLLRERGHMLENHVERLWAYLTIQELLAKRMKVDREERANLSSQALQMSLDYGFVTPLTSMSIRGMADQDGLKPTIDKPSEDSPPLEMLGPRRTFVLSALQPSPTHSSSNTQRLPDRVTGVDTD
MEASUREMENT_KIND: Substrate for HC transfer

Please review the entries below; each comes with its answer.
MOLECULE	MEAS_VALUE
CC(=O)N[C@H]1[C@H](O[C@H]2[C@H](O)[C@@H](O)[C@H](O[C@H]3[C@H](O)[C@@H](CO)O[C@@H](O[C@H]4[C@H](O)[C@@H](O)[C@H](O[C@@H]([C@H](O)[C@H](O)CO)[C@H](CNc5cccc6c5CCC6)NC(C)=O)O[C@@H]4C(=O)O)[C@@H]3NC(C)=O)O[C@@H]2C(=O)O)O[C@H](CO)[C@@H](O)[C@@H]1O[C@@H]1O[C@H](C(=O)O)[C@@H](O)[C@H](O)[C@H]1O	No
COc1ccc(C(=O)O)c(NC[C@H](NC(C)=O)[C@@H](O[C@@H]2O[C@H](C(=O)O)[C@@H](O[C@@H]3O[C@H](CO)[C@@H](O)[C@H](O[C@@H]4O[C@H](C(=O)O)[C@@H](O[C@@H]5O[C@H](CO)[C@@H](O)[C@H](O[C@@H]6O[C@H](C(=O)O)[C@@H](O)[C@H](O)[C@H]6O)[C@H]5NC(C)=O)[C@H](O)[C@H]4O)[C@H]3NC(C)=O)[C@H](O)[C@H]2O)[C@H](O)[C@H](O)CO)c1	Yes
CC(=O)N[C@H]1[C@H](O[C@H]2[C@H](O)[C@@H](O)[C@H](O[C@H]3[C@H](O)[C@@H](CO)O[C@@H](O[C@H]4[C@H](O)[C@@H](O)[C@H](O[C@@H]([C@H](O)[C@H](O)CO)[C@H](CNc5ccccc5C(=O)O)NC(C)=O)O[C@@H]4C(=O)O)[C@@H]3NC(C)=O)O[C@@H]2C(=O)O)O[C@H](CO)[C@@H](O)[C@@H]1O[C@@H]1O[C@H](C(=O)O)[C@@H](O)[C@H](O)[C@H]1O	Yes
CC(=O)N[C@H]1[C@H](O[C@H]2[C@H](O)[C@@H](O)[C@H](O[C@H]3[C@H](O)[C@@H](CO)O[C@@H](O[C@H]4[C@H](O)[C@@H](O)[C@H](O[C@@H]([C@H](O)[C@H](O)CO)[C@H](CNc5ccc6c(c5)CCC6)NC(C)=O)O[C@@H]4C(=O)O)[C@@H]3NC(C)=O)O[C@@H]2C(=O)O)O[C@H](CO)[C@@H](O)[C@@H]1O[C@@H]1O[C@H](C(=O)O)[C@@H](O)[C@H](O)[C@H]1O	No

--- query ---
**Query** Item CC(=O)N[C@H]1[C@H](O[C@H]2[C@H](O)[C@@H](O)[C@H](O[C@H]3[C@H](O)[C@@H](CO)O[C@@H](O[C@H]4[C@H](O)[C@@H](O)[C@H](O[C@H]5[C@H](O)[C@@H](CO)O[C@@H](O[C@H]6[C@H](O)[C@@H](O)[C@H](O[C@H]7[C@H](O)[C@@H](CO)OC(O)[C@@H]7NC(C)=O)O[C@@H]6C(=O)O)[C@@H]5NC(C)=O)O[C@@H]4C(=O)O)[C@@H]3NC(C)=O)O[C@@H]2C(=O)O)O[C@H](CO)[C@@H](O)[C@@H]1O[C@@H]1O[C@H](C(=O)O)[C@@H](O)[C@H](O)[C@H]1O (some centres unmarked) [HA8^AN, reference compound] has what recorded Substrate for HC transfer?
**Result** Yes

----------
biological target: Link_TSG6 (Homo sapiens, UniProt P98066); construct: made in house; test: ITC of HA oligosaccharides binding to Link_TSG6; settings: Table 4; ITC, 25 °C, 5 mM MES pH 6.0; 0.029 mM Link_TSG6, 0.29 mM oligosaccharide; mean ± SEM, four titrations
MEASUREMENT_KIND: N
Reply briefly: the number, and no unit.

CHEMICAL_STRUCTURE	TARGET_ENTITY	N
CC(=O)N[C@H]1[C@H](O[C@H]2[C@H](O)[C@@H](O)[C@H](O[C@H]3[C@H](O)[C@@H](CO)O[C@@H](O[C@H]4[C@H](O)[C@@H](O)[C@H](O[C@@H]([C@H](O)[C@H](O)CO)[C@H](CNc5cc[nH]n5)NC(C)=O)O[C@@H]4C(=O)O)[C@@H]3NC(C)=O)O[C@@H]2C(=O)O)O[C@H](CO)[C@@H](O)[C@@H]1O[C@@H]1O[C@H](C(=O)O)[C@@H](O)[C@H](O)[C@H]1O	Link_TSG6 (Homo sapiens, UniProt P98066)	0.93
CC(=O)N[C@H]1[C@H](O[C@H]2[C@H](O)[C@@H](O)[C@H](O[C@H]3[C@H](O)[C@@H](CO)O[C@@H](O[C@H]4[C@H](O)[C@@H](O)[C@H](O[C@@H]([C@H](O)[C@H](O)CO)[C@H](CNc5ccc6c(c5)CCC6)NC(C)=O)O[C@@H]4C(=O)O)[C@@H]3NC(C)=O)O[C@@H]2C(=O)O)O[C@H](CO)[C@@H](O)[C@@H]1O[C@@H]1O[C@H](C(=O)O)[C@@H](O)[C@H](O)[C@H]1O	Link_TSG6 (Homo sapiens, UniProt P98066)	1.03

--- query ---
**Query** Item "CC(=O)N[C@H]1[C@H](O[C@H]2[C@H](O)[C@@H](O)[C@H](O[C@H]3[C@H](O)[C@@H](CO)O[C@@H](O[C@H]4[C@H](O)[C@@H](O)[C@H](O[C@H]5[C@H](O)[C@@H](CO)O[C@@H](O[C@H]6[C@H](O)[C@@H](O)[C@H](O[C@@H]([C@H](O)[C@H](O)CO)[C@H](CNc7cc[nH]n7)NC(C)=O)O[C@@H]6C(=O)O)[C@@H]5NC(C)=O)O[C@@H]4C(=O)O)[C@@H]3NC(C)=O)O[C@@H]2C(=O)O)O[C@H](CO)[C@@H](O)[C@@H]1O[C@@H]1O[C@H](C(=O)O)[C@@H](O)[C@H](O)[C@H]1O" has what recorded N?
**Result** 1.19
